Hey, just so you know, these numbers are from PubChem BioAssay (NCI).

Documented GI50 across a set of molecules
System: HOP-92 NSCLC
Test: NCI tumour cell line growth inhibition, 48 h

For this molecule ( Cc1ccc(-c2nc3ccc(Cl)cc3c(=O)n2N2C(=O)CSC2c2ccccc2Cl)cc1 (stereo unspecified) ), measured GI50 is 6.74 µM

Form: molecule = `CCCCON(OC(=O)c1ccc2ccc3cccc4ccc1c2c34)C(C)=O` ; GI50 = 16.3 µM

Field GI50 (entry C#Cc1c(I)n(C2OC(CO[Si](C)(C)C(C)(C)C)C3OC(C)(C)OC32)c(=O)[nH]c1=O (stereo unspecified) ) reads 12.4 µM

Lookup result for `CC/C=C\C[C@H]1C/C=C2/C(=O)C=C[C@@H]2C/C=C\CCCC(=O)O1` ; measured GI50: 2.34 µM

So, `O=c1c2ccccc2c(=O)c2c1[nH]c1c(-c3ccccc3)c(-c3ccccc3)c(=O)c12` ? Its GI50 was 3.23 µM

// `Cc1[nH]c2ccccc2c(=O)c1CC=C(Cl)Cl` : GI50 value = 15 µM

# molecule `O=S(=O)(Nc1cc(Sc2cccc3cccnc23)c(O)c2ccccc12)c1ccccc1` ; its GI50 = 2.61 µM

Measured GI50 of `CCOc1cc(C(C)(C)C)ccc1C1=N[C@@](C)(c2ccc(Cl)cc2)[C@@](C)(c2ccc(Cl)cc2)N1C(=O)N1CCN(CCCS(C)(=O)=O)CC1` : 2.31 µM

Measured GI50 of `CC(CO)(CO)NCCCCn1ccc2c1C(=O)c1c(c(O)c3ccccc3c1O)C2=O` : 5.73 µM

Input `Br[C](Br)(Br)[Hg][c]1ccccc1` . Output GI50: 12.5 µM

Sample `CC1=C[C@H]2c3c(c(O)c(O)c4oc(-c5ccccc5)cc(=O)c34)[C@H](c3cc(O)c(O)c4oc(-c5ccccc5)cc(=O)c34)[C@H]2C(C)(C)C1` ; GI50 observed: 1.36 µM
